Data credit: patent US20240417405A1

Test system: MOLM14 cells
ASSAY_SUMMARY: Proliferation assay, spheroid-like growth, MOLM14 (MLL-AF9 rearranged)
Assay type: cell-based, human
CONDITION_LABEL: Homo sapiens, MOLM-14, 192 h, 8 days, confluence as measure of spheroid size, read-out: spheroid assay_OneTime MOLM14 IC50
READOUT_NAME: pIC50
In textbook form, pIC50 equals minus log to base ten of the concentration in mol/L.

MOLECULE | pIC50
CC(C)[C@H]([C@H]1C[C@@H](N2CC3(COC3)C2)C1)N1CC2(CCN(c3ncnnc3Oc3ccc(F)cc3-c3ncc(C#N)cc3C3CC3)C2)C1 (single isomer, unassigned) [Compound 94] | 7.60

Identify the reported pIC50 for the following entry. Cc1cc(-c2cnnc(N[C@H]3C[C@@H]([C@@H](C(C)C)N4CC5(CCN(c6ncnnc6Oc6ccc(F)cc6-c6cncnc6C6CC6)C5)C4)C3)c2)[nH]n1 (single isomer, unassigned) [Compound 423]
8.05
